Target: T1, human Klotho β (human, UniProt Q86Z14 1-1044)
T1 sequence (looked up): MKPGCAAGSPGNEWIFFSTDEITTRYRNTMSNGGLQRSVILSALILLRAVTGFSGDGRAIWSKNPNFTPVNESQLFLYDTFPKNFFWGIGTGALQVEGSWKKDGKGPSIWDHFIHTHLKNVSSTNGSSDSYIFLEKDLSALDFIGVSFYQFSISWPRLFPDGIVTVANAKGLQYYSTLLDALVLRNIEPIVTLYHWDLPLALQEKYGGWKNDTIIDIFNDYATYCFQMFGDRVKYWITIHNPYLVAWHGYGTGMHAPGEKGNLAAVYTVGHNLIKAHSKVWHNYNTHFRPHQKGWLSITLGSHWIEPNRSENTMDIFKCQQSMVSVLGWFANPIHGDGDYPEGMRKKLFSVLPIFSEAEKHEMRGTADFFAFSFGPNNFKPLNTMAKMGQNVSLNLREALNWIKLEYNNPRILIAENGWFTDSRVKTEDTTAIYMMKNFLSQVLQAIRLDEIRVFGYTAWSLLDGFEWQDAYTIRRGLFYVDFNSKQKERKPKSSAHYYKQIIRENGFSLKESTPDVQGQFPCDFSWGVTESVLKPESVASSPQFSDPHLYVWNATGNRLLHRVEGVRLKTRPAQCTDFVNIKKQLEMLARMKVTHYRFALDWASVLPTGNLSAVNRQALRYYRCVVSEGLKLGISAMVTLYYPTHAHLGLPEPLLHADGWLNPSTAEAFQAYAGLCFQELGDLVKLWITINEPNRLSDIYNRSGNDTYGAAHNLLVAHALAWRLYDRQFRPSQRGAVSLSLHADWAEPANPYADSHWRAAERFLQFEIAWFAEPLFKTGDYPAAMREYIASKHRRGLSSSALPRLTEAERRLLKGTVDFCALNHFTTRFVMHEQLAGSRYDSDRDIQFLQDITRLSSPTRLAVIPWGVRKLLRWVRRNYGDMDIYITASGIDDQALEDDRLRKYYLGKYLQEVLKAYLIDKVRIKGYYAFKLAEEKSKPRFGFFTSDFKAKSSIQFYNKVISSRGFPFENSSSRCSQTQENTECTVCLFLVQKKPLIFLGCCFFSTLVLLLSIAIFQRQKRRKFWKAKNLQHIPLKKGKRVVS
Assay: cell-based or functional assay
Non-standard residues stand in square brackets, D forms with d. No end group written: not given here.
property_label: IC50 of antagonism of FGF21 (assay of Example 1) (nM)

1 = PPDVGSSDPLSMVGPSQG[dR]SPSYAS-NH2 [FGF21 D19]
2 = PPDVGSSDPLSMVGPSQGRSPSYAS-NH2 [FGF21 157-181]
3 = PPDVGSSDPL[dS]MVGPSQG[dR]SPSYAS-NH2 [FGF21 D11D19]
Give the order of the entries above, sorted from least to greatest IC50 of antagonism of FGF21 (assay of Example 1). Kindly provide the labels arranged according to the requested ordering.
3, 1, 2
(3: 14.1 nM, 1: 52.5 nM, 2: 182 nM)
